src = patent US11534441B2

Target: MAP4K1 (HPK1) (Homo sapiens (Human))
Sequence (Q92918 whole entry): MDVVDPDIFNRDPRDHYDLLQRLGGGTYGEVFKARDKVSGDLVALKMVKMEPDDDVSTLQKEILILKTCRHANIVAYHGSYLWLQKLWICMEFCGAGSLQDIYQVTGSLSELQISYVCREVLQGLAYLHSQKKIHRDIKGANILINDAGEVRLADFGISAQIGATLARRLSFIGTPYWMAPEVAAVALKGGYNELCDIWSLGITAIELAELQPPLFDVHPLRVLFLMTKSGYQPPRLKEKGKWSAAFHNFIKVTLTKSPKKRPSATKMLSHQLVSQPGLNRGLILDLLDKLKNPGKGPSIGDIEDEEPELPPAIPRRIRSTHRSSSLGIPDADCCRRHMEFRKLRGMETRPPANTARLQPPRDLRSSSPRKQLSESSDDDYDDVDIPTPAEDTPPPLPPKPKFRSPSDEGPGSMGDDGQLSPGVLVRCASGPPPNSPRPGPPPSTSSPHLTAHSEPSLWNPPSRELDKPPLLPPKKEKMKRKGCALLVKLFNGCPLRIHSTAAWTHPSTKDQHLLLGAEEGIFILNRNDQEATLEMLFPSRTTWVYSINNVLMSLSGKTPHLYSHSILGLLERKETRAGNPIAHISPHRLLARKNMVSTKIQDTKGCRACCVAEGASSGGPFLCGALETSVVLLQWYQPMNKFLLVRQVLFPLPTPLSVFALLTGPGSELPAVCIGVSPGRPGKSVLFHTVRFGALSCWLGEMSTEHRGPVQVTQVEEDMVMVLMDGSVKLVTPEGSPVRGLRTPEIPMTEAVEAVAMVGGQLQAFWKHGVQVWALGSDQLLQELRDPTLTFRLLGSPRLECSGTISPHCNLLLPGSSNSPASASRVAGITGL
Test: MAP4K1 (HPK1) biochemical enzymatic activity, electrophoretic mobility shift (EZReader 2), ATP at APPKM (26 μM)
Details: class designation
Text: MAP4K1 (HPK1) and relevant off-target enzymatic activity was monitored using the Perkin Elmer electrophoretic mobility shift technology platform—the EZReader 2. […] Within the linear, steady-state phase of the kinase enzymatic reaction, the mixed pool of phosphorylated (product) and non-phosphorylated (substrate) peptides was passed through the microfluidic system of the PerkinElmer EZ Reader 2, under an applied electric potential difference. […]
measure: IC50

Problem: Value wanted: IC50 (MAP4K1 (HPK1) (Homo sapiens (Human))) of entry CCOc1ncc(C(C)(C)N)c2cc(Nc3ccc4c(n3)CC(C)(C)OC4=O)ncc12 [Compound 54]
Solution: < 0.3 nM

Problem: Value wanted: IC50 (MAP4K1 (HPK1) (Homo sapiens (Human))) of entry C[C@H]1OC(=O)c2ccc(Nc3cc4c(C(C)(C)N)cnc(OC5CC5)c4cn3)nc2[C@@H]1C [Compound 65]
Solution: 0.31 to 1 nM

Problem: Value wanted: IC50 (MAP4K1 (HPK1) (Homo sapiens (Human))) of entry COc1ncc([C@](C)(N)C2CC2)c2cc(Nc3ccc4c(n3)[C@@H](C)C(C)(C)OC4=O)ncc12 [Compound 101]
Solution: < 0.3 nM

Problem: Value wanted: IC50 (MAP4K1 (HPK1) (Homo sapiens (Human))) of entry C[C@H]1OC(=O)c2ccc(Nc3cc4c([C@](C)(N)C5CC5)cnc(OC5CC5)c4cn3)nc2C1(C)C (single isomer, unassigned) [Compound 171]
Solution: < 0.3 nM

Problem: Value wanted: IC50 (MAP4K1 (HPK1) (Homo sapiens (Human))) of entry CC[C@@H](C)c1nc(Nc2cc3c(C(C)(C)N)cnc(OC)c3cn2)cnc1C#N [Compound 21]
Solution: 0.31 to 1 nM
